Taken from ChEMBL document CHEMBL5360554.

# systemName: Keap1/Nrf2 (Homo sapiens) (UniProt Q16236+Q14145)
# Sequence (Q14145 whole entry, looked up): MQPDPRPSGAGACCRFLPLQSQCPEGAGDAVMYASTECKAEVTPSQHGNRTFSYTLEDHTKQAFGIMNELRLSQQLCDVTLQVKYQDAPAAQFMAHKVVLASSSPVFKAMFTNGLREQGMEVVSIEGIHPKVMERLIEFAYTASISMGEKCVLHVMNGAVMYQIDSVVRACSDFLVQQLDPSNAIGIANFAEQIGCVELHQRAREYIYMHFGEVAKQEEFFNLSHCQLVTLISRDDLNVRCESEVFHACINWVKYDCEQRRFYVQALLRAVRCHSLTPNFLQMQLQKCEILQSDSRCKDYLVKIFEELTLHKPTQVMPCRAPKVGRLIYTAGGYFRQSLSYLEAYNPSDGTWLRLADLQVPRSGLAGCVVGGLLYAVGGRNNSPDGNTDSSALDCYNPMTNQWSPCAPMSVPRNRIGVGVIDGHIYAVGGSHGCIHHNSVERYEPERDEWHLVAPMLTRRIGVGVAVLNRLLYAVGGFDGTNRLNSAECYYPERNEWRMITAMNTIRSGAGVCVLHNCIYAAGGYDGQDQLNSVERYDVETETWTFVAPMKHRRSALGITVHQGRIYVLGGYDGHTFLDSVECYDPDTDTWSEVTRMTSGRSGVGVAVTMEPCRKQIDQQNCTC
# Sequence (Q16236 whole entry, looked up): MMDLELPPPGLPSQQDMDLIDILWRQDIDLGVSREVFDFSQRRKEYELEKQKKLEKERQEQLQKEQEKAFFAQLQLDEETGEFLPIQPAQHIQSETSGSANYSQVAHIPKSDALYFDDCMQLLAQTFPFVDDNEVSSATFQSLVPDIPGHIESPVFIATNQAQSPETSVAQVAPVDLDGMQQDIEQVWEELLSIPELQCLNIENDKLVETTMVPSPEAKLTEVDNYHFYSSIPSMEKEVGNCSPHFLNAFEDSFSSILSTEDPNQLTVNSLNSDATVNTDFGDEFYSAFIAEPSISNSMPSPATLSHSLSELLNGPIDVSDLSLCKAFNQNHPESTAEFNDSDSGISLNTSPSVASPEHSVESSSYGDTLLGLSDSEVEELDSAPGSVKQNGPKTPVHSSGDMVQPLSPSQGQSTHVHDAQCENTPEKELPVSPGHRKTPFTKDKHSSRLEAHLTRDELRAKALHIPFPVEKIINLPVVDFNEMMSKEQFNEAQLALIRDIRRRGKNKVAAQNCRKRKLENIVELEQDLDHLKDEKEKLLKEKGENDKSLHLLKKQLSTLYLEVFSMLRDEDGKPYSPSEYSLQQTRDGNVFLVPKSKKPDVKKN
# experimentSummary: Inhibition of Keap1-Nrf2 protein-protein interaction in human NCM460D cells assessed as increase in GSTM3 gene expression at 100 uM by RT-qPCR analysis
# Type: cell-based
Active and inactive are the calls of the source. The rule behind the calls is not given here.
Respond using exactly one of the listed classes: True = active, False = inactive

Incoming: // return assay outcome for "COc1ccc(S(=O)(=O)N(CC(=O)O)c2cc(CCCN3C(=O)c4ccccc4C3=O)c(N(CC(=O)O)S(=O)(=O)c3ccc(OC)cc3)c3ccccc23)cc1"
Outgoing: True

Incoming: // return assay outcome for "COc1ccc(S(=O)(=O)N(CC(=O)O)c2cc(-c3ccc(C#N)cc3)c(N(CC(=O)O)S(=O)(=O)c3ccc(OC)cc3)c3ccccc23)cc1"
Outgoing: False

Incoming: // return assay outcome for "COc1ccc(-c2cc(N(CC(=O)O)S(=O)(=O)c3ccc(OC)cc3)c3ccccc3c2N(CC(=O)O)S(=O)(=O)c2ccc(OC)cc2)cc1"
Outgoing: True

Incoming: // return assay outcome for "COc1ccc(S(=O)(=O)N(CC(=O)O)c2cc(-c3ccc(N4C(=O)c5ccccc5C4=O)cc3)c(N(CC(=O)O)S(=O)(=O)c3ccc(OC)cc3)c3ccccc23)cc1"
Outgoing: True

Incoming: // return assay outcome for "COc1ccc(S(=O)(=O)N(CC(=O)O)c2cc(CCC(=O)N3CCOCC3)c(N(CC(=O)O)S(=O)(=O)c3ccc(OC)cc3)c3ccccc23)cc1"
Outgoing: True
